Numbers sourced from patent US20230080534A1.

Target: T1, human SEMG2 full-length protein (human, UniProt Q02383 24-582, limits assumed)
T1 construct: also called SEMG2 protein; semenogelin 2
T1 sequence: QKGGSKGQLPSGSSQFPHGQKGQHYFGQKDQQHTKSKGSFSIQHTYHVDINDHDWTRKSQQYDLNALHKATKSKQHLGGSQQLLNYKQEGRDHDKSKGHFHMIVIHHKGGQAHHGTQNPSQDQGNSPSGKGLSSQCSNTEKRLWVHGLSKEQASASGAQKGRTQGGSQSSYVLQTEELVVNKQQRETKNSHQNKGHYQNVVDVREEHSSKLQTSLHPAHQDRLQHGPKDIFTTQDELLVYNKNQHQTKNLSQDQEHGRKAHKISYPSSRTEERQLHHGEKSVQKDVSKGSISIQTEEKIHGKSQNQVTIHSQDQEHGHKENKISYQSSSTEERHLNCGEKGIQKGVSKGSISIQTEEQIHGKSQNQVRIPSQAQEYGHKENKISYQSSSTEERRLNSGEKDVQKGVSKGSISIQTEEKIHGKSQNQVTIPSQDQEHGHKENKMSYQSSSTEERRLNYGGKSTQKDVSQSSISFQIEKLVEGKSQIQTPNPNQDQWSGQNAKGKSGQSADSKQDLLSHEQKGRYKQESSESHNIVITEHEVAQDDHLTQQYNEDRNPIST
Assay: ELISA, immobilized antigen SEMG2 (1-582)
measured_metric: A450 absorbance
Number, no unit, nothing else.

Answered examples (3):
MM05 (antibody, IgG1, V domains shown) VH: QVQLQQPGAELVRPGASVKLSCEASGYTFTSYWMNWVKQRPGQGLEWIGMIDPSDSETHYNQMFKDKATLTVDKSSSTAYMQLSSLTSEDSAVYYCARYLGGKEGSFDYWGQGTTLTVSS VL: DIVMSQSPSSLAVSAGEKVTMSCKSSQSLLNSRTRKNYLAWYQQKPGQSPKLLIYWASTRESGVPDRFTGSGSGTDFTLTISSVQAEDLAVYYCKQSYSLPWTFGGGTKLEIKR : 1.17
MM07 (antibody, V domains shown, The VH and VL begin with what look like leader peptides (MDWLW..., MVSSAQ...)) VH: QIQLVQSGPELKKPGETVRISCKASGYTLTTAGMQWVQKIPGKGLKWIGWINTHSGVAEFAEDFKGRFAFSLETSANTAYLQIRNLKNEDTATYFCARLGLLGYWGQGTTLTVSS VL: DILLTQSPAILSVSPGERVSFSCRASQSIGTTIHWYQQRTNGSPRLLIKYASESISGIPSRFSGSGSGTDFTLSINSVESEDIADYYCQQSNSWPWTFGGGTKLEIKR : 1.14
MM02 (antibody, IgG2b, V domains shown) VH: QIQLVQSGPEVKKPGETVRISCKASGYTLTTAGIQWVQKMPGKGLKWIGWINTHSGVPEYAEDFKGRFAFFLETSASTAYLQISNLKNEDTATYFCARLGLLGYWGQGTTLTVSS VL: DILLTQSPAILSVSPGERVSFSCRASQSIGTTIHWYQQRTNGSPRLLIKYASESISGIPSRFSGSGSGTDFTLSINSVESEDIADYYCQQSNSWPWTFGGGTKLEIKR : 1.2

We now examine a further binder.
In: Recorded A450 absorbance of MM08 (antibody, IgG1, V domains shown) VH: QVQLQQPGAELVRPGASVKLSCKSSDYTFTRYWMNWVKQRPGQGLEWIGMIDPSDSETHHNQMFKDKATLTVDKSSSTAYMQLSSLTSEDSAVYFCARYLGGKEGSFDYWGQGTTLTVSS VL: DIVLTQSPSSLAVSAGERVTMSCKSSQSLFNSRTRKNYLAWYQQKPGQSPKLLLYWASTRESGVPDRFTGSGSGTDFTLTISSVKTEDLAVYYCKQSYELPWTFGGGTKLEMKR , please.
Out: 1.13
